Test system: L1210 leukemia ip in BDF1 mice, survival T/C
Assay: NCI In Vivo Anticancer Drug Screen. Data for tumor model L1210 Leukemia (intraperitoneal) in B6D2F1 (BDF1) mice
Settings: endpoint: mean survival time; dose: 200.0 mg/kg/injection; schedule: Q01DX009 (ip); vehicle: gum acacia; higher = longer survival
Inconclusive results and toxic doses are left out.
readout.label: T/C

Record request: T/C value, item `O=P(Nc1ccccc1)(Nc1ccccc1)Nc1ccccc1`
97 % of control

Which T/C is listed for `CCN(C(=O)Nc1cccc2ccccc12)c1ccccc1C` ?
96 % of control

So what does the record say about T/C for `Cc1ccc(C(CC(=O)O)CC(=O)O)c(O)c1` ?
93 % of control

Given the entry `C=CCc1cc(Cl)ccc1OCC(=O)O` , report its measured T/C.
96 % of control
